Attribution: the supplement of paper PMC7125110

B1: glmS ribozyme (parent)
chain: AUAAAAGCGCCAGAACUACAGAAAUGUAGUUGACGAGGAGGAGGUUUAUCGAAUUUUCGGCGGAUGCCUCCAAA

Variants of: B1
Protocol text: self-cleavage kobs at 10000 uM GlcN6P; higher = faster cleavage; RNA array
Settings: with glucosamine-6-phosphate
Fewer inactive variants are shown than the library holds.
In this section we review reported self-cleavage kobs at 10000 uM GlcN6P values for a set of variants.

Sequence data | self-cleavage kobs at 10000 uM GlcN6P
AUAAAAGCGCCAGAACUACAGAAAUGUAGUUGACGCGGAGGAGGUUUAUCGAAUUUUCGGAGGAUGCCUCCAAA | < 1e-05 s⁻¹
AUAAAUGCGCCAGAACUACAGAAAUGUAGUUGACGAGGAGGAGGUUGAUAGAAUUUUCGGCGGAUGCCUCCAAA | < 1e-05 s⁻¹
AUAAAAGCGCCAGAACUACAGAAAUGUAGUUGACGACGAGGAGAUUUAUCGAAUUUUCGGCGGAUGCCUCCAAA | < 1e-05 s⁻¹
